- procedure-details: MITF transcriptional activity suppression – cell-based, SK-MEL-5, single point, luciferase, primary screen (AID 488899)
- stated-conditions: SK-MEL-5 TRPM1 promoter luciferase, 24 h; at 12.5 µM
In all, about 330,000 compounds went through this assay and about 2,800 (0.85%) were called active.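 The calls were made as follows: active = mean inhibition across replicates of 60% or more, whatever share of single replicates reaches that level; inconclusive = some that reach 60%, reason not given; inactive = mean inhibition across replicates below 60%.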 For the sample, actives were picked, then their nearest neighbours and some compounds at random.
Select the correct class. Options are active, inactive and nothing else.

INSERT INTO assay_data (molecule, qualitative_label) VALUES
  ('O=C1CC(c2ccccc2)C(c2ccccc2)=NN1 (stereo not given)', 'inactive'),
  ('O=C(c1ccc2c(c1)N(Cc1ccc(F)cc1)C(=O)c1ccccc1S2(=O)=O)N1CCN(c2ccccn2)CC1', 'inactive'),
  ('C=C(C)C(=O)O[C@H]1C/C(C)=C\C(=O)/C=C(\C)[C@H](O)[C@@H]2OC(=O)C(=C)[C@@H]21', 'active');

Per the assay record, what outcome was assigned to `Nc1nc(SCC(=O)N2CCN(S(=O)(=O)c3ccc(Cl)cc3)CC2)n[nH]1` ?
inactive

How about `C=CCn1c(=S)[nH]c2scc(-c3ccco3)c2c1=O` ?
inactive

Where these numbers come from: PubChem BioAssay AID488899
